- Assayed Target: GST-LXRβ ligand-binding domain (Homo sapiens, UniProt P55055, INS174Q)
- Construct: amino acids 156-461; NP009052
- Sequence (P55055 with tags, fused parts or gaps INS174Q limits assumed): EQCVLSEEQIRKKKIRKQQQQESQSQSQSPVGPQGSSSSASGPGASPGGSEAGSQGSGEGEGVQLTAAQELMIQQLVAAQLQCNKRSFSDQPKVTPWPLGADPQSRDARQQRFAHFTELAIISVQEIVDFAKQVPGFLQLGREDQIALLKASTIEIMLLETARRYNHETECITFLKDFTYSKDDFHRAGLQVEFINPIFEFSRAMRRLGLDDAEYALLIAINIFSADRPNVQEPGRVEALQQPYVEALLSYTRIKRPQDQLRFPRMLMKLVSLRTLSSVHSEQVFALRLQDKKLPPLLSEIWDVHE
- Run Description: TR-FRETβ activity assay (NCoA3 coactivator peptide recruitment)
- Condition Info: 1 μM 24(S)-25-epoxycholesterol as prestimulating agonist; inverse agonist unless *
pEC50: −log10 of the molar value.
Measured Attribute: pEC50

1) Cc1nc2ccc(=O)[nH]c2c(C(=O)N(Cc2ccc(-c3cccc(C(C)(C)C(=O)O)c3)cc2)Cc2ccc(C(F)(F)F)o2)c1C [Example 36]; 5.00 to 6.00
2) Cc1cnc2ccccc2c1C(=O)N(Cc1ccc(-c2cccc(C(C)(C)C(=O)O)c2)cc1)Cc1ccc(C(F)(F)F)o1 [27/103]; > 7.00
3) Cc1nc2cnccc2c(C(=O)N(Cc2ccc(-c3cccc(C(C)(C)C(=O)O)c3)cc2)Cc2ccc(C(F)(F)F)o2)c1C [27/135]; 6.00 to 7.00
4) COc1cc(-c2ccc3c(c2)C(C)(C)C(=O)OC3)ccc1CN(Cc1ccc(C(F)(F)F)o1)Cc1c(C)ccc2ccccc12 [7/9]; 5.00 to 6.00
5) Cc1ccc2ccccc2c1CN(Cc1ccc(C(F)(F)F)o1)Cc1ccc(-c2cccc(S(=O)(=O)CC(=O)O)c2)c2nccn12 [Example 27]; < 5.00

###

- Assayed Target: LXRα ligand-binding domain (LBD) (Homo sapiens)
- Sequence (Q13133 155-447): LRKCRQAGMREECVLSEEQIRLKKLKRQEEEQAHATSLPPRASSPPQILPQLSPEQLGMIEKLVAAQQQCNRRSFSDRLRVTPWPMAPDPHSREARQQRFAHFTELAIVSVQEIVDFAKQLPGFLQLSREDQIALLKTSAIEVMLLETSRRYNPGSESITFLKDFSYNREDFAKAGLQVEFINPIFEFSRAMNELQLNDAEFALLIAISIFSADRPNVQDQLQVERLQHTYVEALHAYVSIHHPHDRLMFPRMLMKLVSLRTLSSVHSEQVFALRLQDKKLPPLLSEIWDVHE
- Run Description: LXR Gal4 reporter transient transfection assay, mammalian two-hybrid, LBD-M2H Gal4α
- Condition Info: HEK293 cells; inverse agonist unless *
EC50 values, listed per item
Measured Attribute: EC50

1) Cc1ccc2ccccc2c1CN(Cc1ccc(C(F)(F)F)o1)Cc1ccc(-c2cccc(C(C)(C)C(=O)O)c2)c2nccn12 [7/15]; 100 to 1000 nM
2) Cc1ccc2ccccc2c1CN(Cc1ccc(-c2cccc(C(C)(C)C(=O)O)c2)cc1)Cc1ccc(C(F)(F)F)o1 [Example 24]; < 100 nM
3) Cc1ccc2ncccc2c1CN(Cc1ccc(-c2cccc(C(C)(C)C(=O)O)c2)cc1)Cc1ccc(C(F)(F)F)o1 [24/3]; < 100 nM
4) COc1cc(-c2cccc(C(C)(C)C(=O)O)c2)ccc1CN(Cc1ccc(C(F)(F)F)o1)Cc1c(C)cc(C)cc1C [22/12]; 100 to 1000 nM
5) Cc1nc2ccccc2c(CN(Cc2ccc(-c3cccc(C(C)(C)C(=O)O)c3)cc2)Cc2ccc(C(F)(F)F)o2)c1C [24/5]; < 100 nM
6) Cc1ccc2ccccc2c1CN(Cc1ccc(-c2cncc(C(C)(C)C(=O)O)c2)cc1)Cc1ccc(C(F)(F)F)o1 [26/1]; 100 to 1000 nM
7) CC(C)(C(=O)O)c1cccc(-c2ccc(CN(Cc3ccc(C(F)(F)F)o3)C(=O)C34CC5CC(CC(C5)C3)C4)cc2)c1 [27/56]; 100 to 1000 nM
8) COc1cc(-c2ccc(CO)c(C(C)(C)C(=O)[O-])c2)ccc1CN(Cc1ccc(C(F)(F)F)o1)Cc1c(C)ccc2ccccc12.[Na+] [Example 14]; 1000 to 10000 nM
9) Cc1ncc2ccccc2c1CN(Cc1ccc(-c2cccc(C(C)(C)C(=O)O)c2)cc1)Cc1ccc(C(F)(F)F)o1 [24/4]; < 100 nM
10) COc1cc(-c2cccc(C(C)(C)C(=O)O)c2)cnc1CN(Cc1ccc(C(F)(F)F)o1)Cc1c(C)ccc2ccccc12 [22/4]; 1000 to 10000 nM
11) COc1cc(-c2ccc3c(c2)C(C)(C)C(=O)OC3)ccc1CN(Cc1ccc(C(F)(F)F)o1)Cc1c(C)ccc2ccccc12 [7/9]; 1000 to 10000 nM

###

- Run Description: Pharmacokinetics in mice after single oral dosing, blood and liver exposure by LC-MS
- Assay type: in vivo, mice (C57/bl6/J)
- Condition Info: single oral dose 20 mg/kg, time point 4 h
The label depends only on liver exposure: true (1) if it is at least 20 µM, false (0) if it is smaller.

1) Cc1ccc2ccccc2c1CN(Cc1ccc(C(F)(F)F)o1)Cc1ccc(-c2cncc(S(=O)(=O)CC(=O)O)c2)cc1Cl; false (0)
2) Cc1ccc2ncccc2c1CN(Cc1ccc(-c2cccc(C(C)(C)C(=O)O)c2)cc1)Cc1ccc(C(F)(F)F)o1; false (0)
3) Cc1cc(C)c(CN(Cc2ccc(-c3cc(F)c(CO)c(S(=O)(=O)CC(=O)O)c3)cc2)Cc2ccc(C(F)(F)F)o2)c(C)c1; true (1)
4) CC(C)(C(=O)O)c1cccc(-c2ccc(CN(Cc3ccc(C(F)(F)F)o3)Cc3c(C#N)ccc4ccccc34)cc2)c1; false (0)
5) Cc1cc(C)c(CN(Cc2ccc(-c3cccc(S(=O)(=O)CC(=O)O)c3)cc2)Cc2ccc(C(F)(F)F)o2)c(C)c1; true (1)
6) CCOC(=O)c1ccc(CN(Cc2ccc(-c3cccc(C(C)(C)C(=O)O)c3)cc2)C(=O)c2c(C)ccc3ccccc23)o1; true (1)
7) Cc1ccc2ccccc2c1C(=O)N(Cc1ccc(-c2cccc([C@@H](C)C(=O)O)c2)cc1)Cc1ccc(C(F)(F)F)o1; true (1)
8) Cc1c(CN(Cc2ccc(-c3cccc(C(C)(C)C(=O)O)c3)cc2)Cc2ccc(C(F)(F)F)o2)c2ccccc2n(C)c1=O; false (0)
9) COC(=O)CS(=O)(=O)c1cccc(-c2ccc(CN(Cc3ccc(C(F)(F)F)o3)C(C)c3cccc4ccccc34)cc2)c1 (stereo not drawn); false (0)
10) Cc1ccc2ccccc2c1C(=O)N(Cc1ccc(-c2cc(F)c(CO)c(S(=O)(=O)CC(=O)O)c2)cc1)Cc1ccc(C(F)(F)F)o1; true (1)
11) COc1cc(-c2cccc(C(C)(C)C(=O)O)c2)ccc1CN(Cc1ccc(C(F)(F)F)o1)Cc1c(C)ccc2ccccc12; false (0)
12) Cc1ccc(CN(Cc2ccc(-c3cccc(C(C)(C)C(=O)O)c3)cc2)Cc2ccc(C(F)(F)F)o2)c2ccccc12; false (0)

###

- Assayed Target: LXRα full length (FL) (Homo sapiens)
- Construct: the full length (FL) proteins of LXRα (amino acids 1-447); NP005684
- Run Description: LXR Gal4 reporter transient transfection assay, mammalian two-hybrid, FL-M2H Gal4α
- Condition Info: HEK293 cells; inverse agonist unless *
EC50 values, listed per item
Measured Attribute: EC50

1. Cc1ccc2ccccc2c1C(=O)N(Cc1ccc(-c2cccc(C(C)(C)C(=O)NO)c2)cc1)Cc1ccc(C(F)(F)F)o1; < 100 nM
2. O=C(O)CS(=O)(=O)c1cccc(-c2ccc(CN(Cc3ccc(C(F)(F)F)o3)C(=O)c3cccc4ccccc34)cc2)c1; 1000 to 10000 nM
3. Cc1c(C(=O)N(Cc2ccc(-c3cccc(C(C)(C)C(=O)O)c3)cc2)Cc2ccc(C(F)(F)F)o2)c2ccccc2n(C)c1=O; < 100 nM
4. COc1cc(-c2cccc(S(=O)(=O)CC(=O)O)c2)ccc1CN(Cc1ccc(C(F)(F)F)o1)C(=O)c1c(C)ccc2ccccc12; 100 to 1000 nM
5. CCc1nc2cnccc2c(C(=O)N(Cc2ccc(-c3cccc(C(C)(C)C(=O)O)c3)cc2)Cc2ccc(C(F)(F)F)o2)c1C; < 100 nM
6. Cc1nc2cccnn2c1C(=O)N(Cc1ccc(-c2cccc(C(C)(C)C(=O)O)c2)cc1)Cc1ccc(C(F)(F)F)o1; 100 to 1000 nM
7. Cc1nc2cccnc2c(CN(Cc2ccc(-c3cccc(C(C)(C)C(=O)O)c3)cc2)Cc2ccc(C(F)(F)F)o2)c1C; < 100 nM
8. CC(C)(C(=O)O)c1cccc(-c2ccc(CN(Cc3ccc(C(F)(F)F)o3)C(=O)c3cccc4ncncc34)cc2)c1; 100 to 1000 nM
9. Cc1cc(C(=O)N(Cc2ccc(C(F)(F)F)o2)Cc2ccc(-c3cccc(C(C)(C)C(=O)O)c3)cc2Cl)c2ncccc2n1; < 100 nM
10. Cc1ccc2ccccc2c1CN(Cc1ccc(-c2cccc(S(=O)(=O)CC(=O)O)c2)cc1)Cc1ccc(C(F)(F)F)o1; 100 to 1000 nM
11. Cc1ccc2ccccc2c1CN(Cc1ccc(-c2cc(F)c(CO)c(S(=O)(=O)CC(=O)O)c2)cc1)Cc1ccc(C(F)(F)F)o1; 100 to 1000 nM
12. Cc1nc2cccnc2c(C(=O)N(Cc2ccc(-c3cccc(C(C)C(=O)O)c3)cc2)Cc2ccc(C(F)(F)F)o2)c1C (stereo not drawn); < 100 nM
13. Cc1cc(C)c(CN(Cc2ccc(-c3cccc(S(=O)(=O)CC(=O)O)c3)cc2)Cc2ccc(C(=O)N(C)C)o2)c(C)c1; 1000 to 10000 nM
14. Cc1nc2cccnc2c(C(=O)N(Cc2ccc(C(F)(F)F)o2)Cc2ccc(-c3cccc(C(C)(C)C(=O)O)c3)cc2F)c1C; < 100 nM
15. COc1cc(-c2cncc(S(=O)(=O)CC(=O)O)c2)ccc1CN(Cc1ccc(C(F)(F)F)o1)C(=O)c1c(C)ccc2ccccc12; 100 to 1000 nM
16. COc1nc(-c2cccc(C(C)(C)C(=O)O)c2)ccc1CN(Cc1ccc(C(F)(F)F)o1)C(=O)c1c(C)ccc2ccccc12; < 100 nM
17. CCc1nc2ccccc2c(C(=O)N(Cc2ccc(-c3cccc(C(C)(C)C(=O)O)c3)cc2)Cc2ccc(C(F)(F)F)o2)c1C; < 100 nM
18. CCOC(=O)c1ccc(CN(Cc2ncc(-c3cccc(C(C)C(=O)O)c3)cc2Cl)C(=O)c2c(C)c(C)nc3ccccc23)o1 (stereo not drawn); 100 to 1000 nM
19. Cc1ccc2ccccc2c1C(=O)N(Cc1ccc(C(F)(F)F)o1)Cc1ccc(-c2cncc(C(C)(C)C(=O)O)c2)cc1OC(F)F; 100 to 1000 nM
20. Cc1ccc2ccccc2c1C(=O)N(Cc1ccc(-c2cccc(S(=O)(=O)CC(=O)O)c2)cc1)Cc1ccc(C(F)(F)F)n1C; 100 to 1000 nM
21. Cc1ccc2ccccc2c1C(=O)N(Cc1ccc(-c2cccc(S(=O)(=O)CC(=O)O)c2)cc1)Cc1ccc(C#N)o1; 1000 to 10000 nM
